# System: Interleukin-12B (IL-12B) release from primary human monocytes (PBMC)
# protocol.details: Interleukin-12B (IL-12B) release from LPS-stimulated primary human monocytes (PBMC)
# Format: cell-based
# condition: 100 ng/ml LPS for 18 h, ELISA, relative IC50, read-out: Interleukin-12B (IL-12B), Rel IC50
Recorded IC50, one value per entry.
// note: answer is a bare numeric in nM

compound	unit.abbreviation	observed.result
CCC(=O)O[C@]1(C(=O)CCl)CC[C@H]2[C@@H]3CCC4=CC(=O)CC[C@]4(CO)[C@H]3[C@@H](O)C[C@@]21C [Compound 1]	nM	36

Continue with the compound presented below.
Prompt: Respond only with IC50 recorded for CCC(=O)O[C@]1(C(=O)CCl)CC[C@H]2[C@@H]3C[C@@H](F)C4=CC(=O)CC[C@]4(CO)[C@H]3[C@@H](O)C[C@@]21C [Compound 2]
Response: 31

* * *

# test.system: recombinant glucocorticoid receptor (GR) (Homo sapiens)
# Sequence (P04150 whole entry): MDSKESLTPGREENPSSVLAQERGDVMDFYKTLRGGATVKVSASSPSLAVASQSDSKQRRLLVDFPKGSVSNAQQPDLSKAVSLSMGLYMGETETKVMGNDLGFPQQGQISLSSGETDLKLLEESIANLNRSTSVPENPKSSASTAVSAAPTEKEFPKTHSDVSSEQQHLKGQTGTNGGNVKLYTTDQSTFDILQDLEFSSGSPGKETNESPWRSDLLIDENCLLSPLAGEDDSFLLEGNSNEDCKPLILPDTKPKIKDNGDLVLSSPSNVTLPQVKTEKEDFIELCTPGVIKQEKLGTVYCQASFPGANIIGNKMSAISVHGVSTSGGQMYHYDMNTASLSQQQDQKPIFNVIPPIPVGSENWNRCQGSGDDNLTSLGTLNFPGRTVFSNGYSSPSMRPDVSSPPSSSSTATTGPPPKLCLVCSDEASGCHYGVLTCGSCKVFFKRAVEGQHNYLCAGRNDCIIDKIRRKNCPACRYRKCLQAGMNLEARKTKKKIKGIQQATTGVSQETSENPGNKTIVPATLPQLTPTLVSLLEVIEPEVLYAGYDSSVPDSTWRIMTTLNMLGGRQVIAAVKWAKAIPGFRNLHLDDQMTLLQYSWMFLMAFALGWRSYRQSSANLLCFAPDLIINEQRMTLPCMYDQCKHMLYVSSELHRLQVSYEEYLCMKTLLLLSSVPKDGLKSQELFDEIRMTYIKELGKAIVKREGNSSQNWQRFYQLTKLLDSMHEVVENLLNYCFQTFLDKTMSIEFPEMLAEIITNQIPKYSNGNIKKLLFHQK
# protocol.details: Glucocorticoid receptor (GR) competitive binding assay (PolarScreen, fluorescence polarization)
# condition: competition with Fluormone GS1, 2 hours at room temperature; relative IC50; read-out: GR binding; Rel IC50
Recorded pIC50, one value per entry.
Convention used: pIC50 is expressed as -log10 of the molar concentration.

Study these solved cases before continuing.
compound	pIC50
CCC(=O)O[C@]1(C(=O)CCl)CC[C@H]2[C@@H]3CCC4=CC(=O)CC[C@]4(CO)[C@H]3[C@@H](O)C[C@@]21C [Compound 1]	7.60
CCC(=O)O[C@]1(C(=O)CCl)CC[C@H]2[C@@H]3C[C@@H](F)C4=CC(=O)CC[C@]4(CO)[C@H]3[C@@H](O)C[C@@]21C [Compound 2]	7.40
CCCCC(=O)O[C@]1(C(=O)CO)[C@@H](C)C[C@H]2[C@@H]3CCC4=CC(=O)C=C[C@]4(C)[C@@]3(F)[C@@H](O)C[C@@]21C [Bethamethasone valerate]	8.15

Prompt: Respond only with pIC50 recorded for CCC(=O)O[C@]1(C(=O)CCl)[C@@H](C)C[C@H]2[C@@H]3CCC4=CC(=O)C=C[C@]4(C)[C@@]3(F)[C@@H](O)C[C@@]21C [Clobetasol propionate]
Response: 8.22
